# Test system: AURKA
# APPLIED_CONDITIONS: concentration: 1 μM,replicates: in singlicate; n = 1;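 further: KINOMEscan kinase panel screen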
Param threshold (5%) applies to %Inh; output YES when value >= threshold, NO when value < threshold.

COMPOUND | STUDY_SYSTEM | QUALITATIVE_LABEL
CS(=O)c1ccc(-c2coc3ccc(-c4n[nH]c(=O)o4)cc23)cc1 (stereo not shown) | AURKA | YES
CCOC(=O)N1CCC(n2cnc(-c3ccc(F)cc3)c2-c2ccnc(N)n2)CC1 | AURKA | YES
Cl.Cl.NC[C@H](CC1CCCCC1)NC(=O)c1ccc(-c2ccnc3[nH]ccc23)s1 | AURKA | YES
COc1cc(Nc2nccc(N3CCC(NC(=O)c4cccc(C#N)c4)C3)n2)cc(OC)c1OC (stereo not shown) | AURKA | YES
CN1CCN(CCCNc2nccc(-c3c(-c4ccc(F)cc4)nn4cc(C(N)=O)ccc34)n2)CC1 | AURKA | YES
Cc1ccn2nc(-c3ccc(F)cc3)c(-c3ccncc3)c2c1.Cl | AURKA | YES
Cc1nnc(-c2ccc3occ(-c4ccc(S(C)=O)cc4)c3n2)o1 (stereo not shown) | AURKA | NO
O=C(Nc1cccc(Oc2ccc3nccn3n2)c1)Nc1cccc(C(F)(F)F)c1 | AURKA | NO
O=C(NOCC1CC1)c1cc(Br)c(F)c(F)c1Nc1ccc(I)cc1Cl | AURKA | NO

* * *

# Tested on: DYRK1A
# APPLIED_CONDITIONS: concentration: 1 μM,replicates: in singlicate; n = 1
Respond with Fulfilled for %Inh values of 30% and above, Not fulfilled for values below.

COMPOUND | QUALITATIVE_LABEL
Cc1ccc(C(=O)Nc2ccc(Oc3ccc4nc(NC(=O)C5CC5)cn4c3)c(F)c2)c(=O)n1-c1ccccc1 | Not fulfilled
Cn1ccc2ncnc(Oc3ccc(NC(=O)Nc4ccnc(C(F)(F)F)c4)c(Cl)c3)c21 | Not fulfilled
Cc1ccc(Nc2ccnc(Nc3ccc4c(c3)CS(=O)(=O)C4)n2)cc1O.Cl [GW579362] | Fulfilled
C[C@@H]1CNc2c(sc3ccc4nc(-c5ccncc5)ccc4c23)C(=O)N1 | Fulfilled
CN1CCN(CCCNc2nccc(-c3c(-c4ccc(F)cc4)nn4cc(C(N)=O)ccc34)n2)CC1 [GW622475] | Not fulfilled
CN(c1ccccc1CNc1nc(Nc2ccc3c(c2)CC(=O)N3)ncc1C(F)(F)F)S(C)(=O)=O | Not fulfilled
C[C@@H](Oc1cc(-n2cnc3ccc(-c4ccncc4)cc32)sc1C(N)=O)c1ccccc1Cl [GSK483724] | Fulfilled
CC(C)c1nc(-c2cccc(NS(=O)(=O)c3ccccc3)c2)c(-c2ccnc(Nc3ccc4c(c3)CN(C)CC4)n2)s1 [GSK1649598] | Not fulfilled

* * *

# System: IKK-epsilon
# Construct: gene IKBKE
# APPLIED_CONDITIONS: concentration: 1 μM,replicates: in singlicate; n = 1
The reader will find reported %Inh values listed item by item below.

COMPOUND | MEASURE_UNIT | %Inh
CS(=O)(=O)c1cccc(CNc2nc(Nc3ccc4c(c3)[C@@H]3C[C@@H]4CNC3=O)ncc2C(F)(F)F)c1 | % | 87
Cn1ccc2ncnc(Oc3ccc(NC(=O)Nc4cc(C(C)(C)C)on4)c(Cl)c3)c21 | % | 0
Cn1cc(-c2cccc3c(N)c(C(N)=O)nnc23)cn1 | % | 0
CN(c1cccc(CNc2nc(Nc3ccc4c(c3)CC(=O)N4)ncc2C(F)(F)F)c1)S(C)(=O)=O | % | 19
COc1cccc(OC)c1C(=O)Nc1cccc(-c2nn3ccccc3c2-c2ccnc(Nc3cccc(F)c3)n2)c1 [GSK361065] | % | 4
OCCn1cc(-c2cnc3nnn(Cc4ccc5ncccc5c4)c3n2)cn1 | % | 0
Cc1ccc(CC(=O)N2CCc3cc(-c4cn(C)c5ncnc(N)c45)ccc32)cc1 [GSK2634758] | % | 36
Cc1ccc2c(-c3ccnc(Nc4ccc(C(F)(F)F)cc4)n3)cnn2n1 [GW819776] | % | 0
CN1CCN(CCCNc2nccc(-c3c(-c4ccc(F)cc4)nn4cc(C(N)=O)ccc34)n2)CC1 [GW622475] | % | 39
Cl.c1ccc(Oc2ccc(Nc3ccnc4cc(-c5ccc(CN6CCNCC6)o5)ccc34)cc2)nc1 [GW567142] | % | 42
CN1CCN(CCNc2nc3cc(Oc4ccc(NC(=O)Nc5cc(C(F)(F)F)ccc5F)cc4)ccc3[nH]2)CC1.Cl.Cl [GW768504] | % | 14
COC(=O)c1cccc(NC(=O)NC2CCN(c3ccnc(NCc4ccc(F)cc4)n3)CC2)c1 [GSK1379860] | % | 0
O=C1NCCc2[nH]c(-c3ccncc3)cc21 | % | 2
COc1cc2nccc(Nc3ccc(Oc4ccccc4)cc3)c2cc1OC.Cl [GI261656] | % | 35
N#Cc1cccc(C(=O)NC2CCN(c3ccnc(Nc4ccc(F)cc4)n3)C2)c1 (stereo not drawn) [GSK1379708] | % | 0
CS(=O)c1ccc(-c2coc3ccc(-c4n[nH]c(=O)o4)cc23)cc1 (stereo not drawn) | % | 0
Cn1ccc2ncnc(Oc3ccc(NC(=O)Nc4cnn(C(C)(C)C)c4)c(Cl)c3)c21 | % | 10
Cc1ccn2nc(-c3ccc(F)cc3)c(-c3ccncc3)c2c1.Cl [GW457859] | % | 16

* * *

# System: MLK3
# APPLIED_CONDITIONS: concentration: 1 μM,replicates: in singlicate; n = 1
Define the label as satisfied when %Inh is strictly less than 10% and as not satisfied in all remaining cases.

COMPOUND | QUALITATIVE_LABEL
O=C(Nc1ccccc1)c1cccc(Oc2ccc3nccn3n2)c1 | satisfied
COC(=O)c1cccc(NC(=O)NC2CCN(c3ccnc(Nc4cc(OC)c(OC)c(OC)c4)n3)C2)c1 (stereo not drawn) | not satisfied
CCOC(=O)N1CCC(n2cnc(-c3ccc(F)cc3)c2-c2ccnc(N)n2)CC1 | not satisfied
O=C(Nc1n[nH]c2cc(-c3ccco3)ccc12)C1CC1 | satisfied
CC(C(=O)NC1CCN(c2ccnc(Nc3ccc(F)cc3)n2)C1)c1ccc(Cl)cc1 (stereo not drawn) | satisfied
Cc1ccc(Nc2ccnc(Nc3ccc4c(c3)CS(=O)(=O)C4)n2)cc1O.Cl | not satisfied
O=c1[nH]cc(-c2ccc(O)cc2)c2sc(-c3ccncc3)cc12 | satisfied

* * *

Items are presented alongside their recorded %Inh.
# System: STK35
# APPLIED_CONDITIONS: concentration: 1 μM,replicates: in singlicate; n = 1
ENDPOINT: %Inh (%)

COMPOUND | ENDPOINT | MEASURE_UNIT | RESULT_NUMBER
COc1cccc(CNC(=O)NC2CCN(c3ccnc(Nc4cc(OC)c(OC)c(OC)c4)n3)C2)c1 (centres unmarked) [GSK1379765] | %Inh | % | 8
CS(=O)c1ccc(-c2coc3ccc(-c4n[nH]c(=O)o4)cc23)cc1 (centres unmarked) | %Inh | % | 9
CC(=O)c1c(-c2ccncc2)[nH]c(-c2ccncc2)c1C [GW493036] | %Inh | % | 0
C[C@@H]1CNc2c(sc3ccc4nc(-c5ccncc5)ccc4c23)C(=O)N1 | %Inh | % | 0
CNC(=O)c1ccccc1Nc1nc(Nc2cccc(CS(C)(=O)=O)c2)ncc1C.O=CO [GSK1520489] | %Inh | % | 34

* * *

# Test system: PHKG1
# APPLIED_CONDITIONS: concentration: 1 μM,replicates: in singlicate; n = 1
In this section we review reported %Inh values for a set of molecules.

MOLECULE | %Inh
Cl.c1ccc(Oc2ccc(Nc3ccnc4cc(-c5ccc(CN6CCNCC6)o5)ccc34)cc2)nc1 [GW567142] | 0%
O=C(NOCC1CC1)c1cc(Br)c(F)c(F)c1Nc1ccc(I)cc1Cl | 0%
CC(=O)Nc1nc2cnc(Nc3cc(NC(=O)c4cccc(CC(C)(C)C#N)c4)ccc3C)nc2s1 | 19%
Cc1cccc(-c2nc(Nc3ccncc3)c3sccc3n2)n1 [GW869641] | 0%
Cn1ccc2ncnc(Oc3ccc(NC(=O)Nc4cnn(C(C)(C)C)c4)c(Cl)c3)c21 | 0%
Cc1ccc(Nc2ccnc(Nc3ccc4c(c3)CS(=O)(=O)C4)n2)cc1O.Cl [GW579362] | 0%
CN1CCN(CCNc2nc3cc(Oc4ccc(NC(=O)Nc5cc(C(F)(F)F)ccc5F)cc4)ccc3[nH]2)CC1.Cl.Cl [GW768504] | 0%
CC(C)S(=O)(=O)N1CCN(Cc2ccc3c(c2)nc(NC(=O)c2ccsc2)n3C[C@H](O)c2ccccc2)CC1 [GW635815] | 64%
CS(=O)c1ccc(-c2coc3ccc(-c4n[nH]c(=O)o4)cc23)cc1 (stereo not drawn) | 0%
COc1cc2nccc(Nc3ccc(Oc4ccccc4)cc3)c2cc1OC.Cl [GI261656] | 0%
COc1cccc(C2=C(Nc3cccc(Cl)c3)C(=O)NC2=O)c1 [SB-341556] | 0%
NC(=O)c1ccc(-c2cc3ncnc(SCC(=O)O)c3s2)cc1 | 0%
COc1ccc(Nc2nccc(N3CCC(NC(=O)c4cccc(C#N)c4)C3)n2)cc1 (stereo not drawn) [GSK1379730] | 0%
O=C1NCCc2[nH]c(-c3ccncc3)cc21 | 0%
CN(c1cccc(CNc2nc(Nc3ccc4c(c3)CC(=O)N4)ncc2C(F)(F)F)c1)S(C)(=O)=O | 40%
N#Cc1cccc(C(=O)NC2CCN(c3ccnc(Nc4ccc(F)cc4)n3)C2)c1 (stereo not drawn) [GSK1379708] | 0%
C[C@@H](Oc1cc(-n2cnc3ccc(-c4ccncc4)cc32)sc1C(N)=O)c1ccccc1Cl [GSK483724] | 9%
Cc1n[nH]c2cc(Nc3ccnc(Nc4cccc(CN5CCOCC5)c4)n3)ccc12 [GW682569] | 0%
CNC(=O)c1ccccc1Nc1nc(Nc2cccc(CS(C)(=O)=O)c2)ncc1C.O=CO [GSK1520489] | 63%
CN(c1ccc2c(c1)nc(NCc1ccc(F)cc1)n2C)c1ccnc(Nc2ccc(CS(C)(=O)=O)cc2)n1.Cl [GW813244] | 0%
Cc1ccc(CC(=O)N2CCc3cc(-c4cn(C)c5ncnc(N)c45)ccc32)cc1 [GSK2634758] | 0%
